Cited source for all entries: patent US20200148774A1

# Target system: T1, recombinant cynomolgus CLL-1 extracellular domain (ECD, amino acids 65-265) fused to an N-terminal Flag (cynomolgus monkey)
# T1 construct: Construct stated for the immunogen; also called CynoCLL-1 Flag; cynoCLL-1
# T1 chain: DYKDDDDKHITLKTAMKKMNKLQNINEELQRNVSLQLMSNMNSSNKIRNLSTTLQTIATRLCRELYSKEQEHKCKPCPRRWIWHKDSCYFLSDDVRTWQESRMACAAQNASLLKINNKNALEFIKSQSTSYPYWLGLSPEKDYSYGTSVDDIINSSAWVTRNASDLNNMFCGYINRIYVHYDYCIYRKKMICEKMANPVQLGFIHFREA
# Test description: SPR (Biacore), chimeric IgG captured by anti-human IgG, CLL-1 as analyte
Recorded measurements of koff, one per entry
All answers are understood in s⁻¹, so give the number only.

Exercise: Quick one: give measured koff for ch21C9 (antibody, V domains shown, chimeric version of m21C9, human IgG; also called chimeric 21C9; Chimeric 21C9) VH: EVQLQQSGPELVKPGASVKMSCKASGYTFTDYYLDWVKQSHGESFEWIGRVNPYNGGTIYNQKFKGKATLTVDKSSSTAYMDLNSLTSEDSAVYYCARDHYRYDPLLDYWGQGTTLTVSS VL: DIQMTQSHKFMSTSVGDRVSITCKASQDVSTAVAWFQQKPGQSPKLLIYSPSYRYTGVPDRFTGSGSGTDFTFTISSVQAEDLAVYYCQQLYSTPYTFGGGTKLEIK
Key: 0.0012

Exercise: Quick one: give measured koff for ch20B1 (antibody, V domains shown, chimeric version of m20B1, human IgG; also called chimeric 20B1; 2061 [sic]) VH: EVQLQQSGPELVKPGALVKISCKASGYTFTSYDINWLKQRPGQGLEWIGWIYPGDGTTEYNERFKGKATLTADKSSSTAYLQLSSLTSENSAVYFCARSYDYDYAMDYWGQGTSVTVSS VL: DIVLTQSPAIMSASPGEKVTMTCSASSSISYMYWYQQKPGTSPKRWIYDTSKLASGVPARFSGSGSGTSYSLTISSMEAEDAATYYCHQRSSWTFGGGTKLEIK
Key: 0.0012

Exercise: Quick one: give measured koff for ch28H12 (antibody, V domains shown, chimeric version of m28H12, human IgG; also called chimeric 28H12) VH: QVQLQQSGAELVKPGASVKLSCTASGFNIKDTYMHWVKQRPEQGLEWIGRIDPANGDTDYDPKFQGKATVTADTSSNTAYLQLSSLTSEDTAVYYCTISGPPYYVMDYWGQGTSVTVSS VL: DIQMTQSPASLAVSLGQRATISCRASQSVSSSSYSYMHWYQQKPGQPPKLLIKYASNLESGVPARFSGRGSGTDFTLNIHPVEEEDTATYYCQHSWEIPYTFGGGTRLEIK
Key: 0.00023

With those in mind, consider the next binder.
Exercise: Quick one: give measured koff for ch6E7 (antibody, V domains shown, chimeric version of m6E7, human IgG; also called chimeric 6E7; Chimeric 6E7) VH: QVQLQQSGPELVKPGASVKISCKASGYSFTDYYMHWVKQSHIKSLEWIGRINPYNGAAFYSQNFKDKASLTVDKSSSTAYMELHSLTSEDSAVYYCAIERGADLEGYAMDYWGQGTSVTVSS VL: DIVLTQSPSSLIVSLGQRATISCRASQSVSTSSYNYMHWYQQKPGQPPKLLLKYASNLESGVPARFSGSGSGTDFTLNIHPVEEEDTATYYCQHSWEIPLTFGAGTKLEIK
Key: 0.00046
